Biological target: T1, Brat-NHL (Drosophila melanogaster, UniProt Q8MQJ9 756-1037)
T1 sequence: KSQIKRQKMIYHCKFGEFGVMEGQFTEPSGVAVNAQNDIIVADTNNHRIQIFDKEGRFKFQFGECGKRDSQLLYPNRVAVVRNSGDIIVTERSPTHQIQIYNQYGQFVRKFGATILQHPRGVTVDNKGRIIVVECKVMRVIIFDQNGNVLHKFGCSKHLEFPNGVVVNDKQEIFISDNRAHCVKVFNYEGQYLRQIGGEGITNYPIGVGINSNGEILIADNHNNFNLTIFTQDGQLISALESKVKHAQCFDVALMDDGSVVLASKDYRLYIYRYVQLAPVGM
Assay: ITC
Property: Kd; scope: individual binders
Dear colleague, please send the value followed by its unit.

[[record]]
binder = "UUGUUGUCGAAAAUUGUACAUAA (structured_RNA) [NRE2 (23-mer)]"
recorded_result = "320 nM"


Query: Provide only the value of recorded Kd for UUGUUG (ssRNA) [BoxA]
Result: 1000 nM

Origin of measurements: paper PMC8421216
